# Tested on: SF-539
# Experiment Notes: Cytotoxicity against human SF539 cells after 48 hrs by SRB assay
# Assay type: functional
# Test Settings: SF-539, 48 h, read-out: LC50 (the source's name)
The reader will find reported CC50 values listed item by item below.
Result Type: CC50 (µM)

| Molecule | Comparative Sign | Observed Measurement |
| --- | --- | --- |
| CC(=O)N1N=C(c2ccc(Nc3ccnc4cc(Cl)ccc34)cc2)CC1c1ccc(Cl)cc1 (stereo unspecified) | > | 100 |
| COc1ccc(C2CC(c3cccc(Nc4ccnc5cc(Cl)ccc45)c3)=NN2C=O)cc1 (stereo unspecified) | = | 66.2 |
| COc1cc(C2CC(c3cccc(Nc4ccnc5cc(Cl)ccc45)c3)=NN2C=O)cc(OC)c1OC (stereo unspecified) | = | 55.5 |
| O=CN1N=C(c2cccc(Nc3ccnc4cc(Cl)ccc34)c2)CC1c1ccccc1 (stereo unspecified) | = | 35.7 |
| COc1ccc(C2CC(c3ccc(Nc4ccnc5cc(Cl)ccc45)cc3)=NN2C=O)cc1 (stereo unspecified) | > | 100 |
| Cc1ccc(C2CC(c3ccc(Nc4ccnc5cc(Cl)ccc45)cc3)=NN2C=O)cc1 (stereo unspecified) | > | 100 |
| COc1cccc2c1C(=O)c1c(O)c3c(c(O)c1C2=O)C[C@@](O)(C(=O)CO)C[C@@H]3O[C@H]1C[C@H](N)[C@H](O)[C@H](C)O1 [DOXORUBICIN] | = | 27.2 |
| O=CN1N=C(c2cccc(Nc3ccnc4cc(Cl)ccc34)c2)CC1c1ccc(Cl)cc1 (stereo unspecified) | > | 100 |
| O=CN1N=C(c2ccc(Nc3ccnc4cc(Cl)ccc34)cc2)CC1c1ccc(Cl)cc1 (stereo unspecified) | > | 100 |
| COc1cc(C2CC(c3ccc(Nc4ccnc5cc(Cl)ccc45)cc3)=NN2C=O)cc(OC)c1OC (stereo unspecified) | = | 37.6 |
| O=CN1N=C(c2ccc(Nc3ccnc4cc(Cl)ccc34)cc2)CC1c1ccccc1 (stereo unspecified) | = | 99.2 |

The values you see were collected from ChEMBL document CHEMBL2417469.
